Molecular target: Fibroblast growth factor 2 (Homo sapiens)
Assay: FGF2 binders on small-molecule microarrays, primary screen, biochemical, small-molecule microarray, 635/667 nm fluorescence (AID 1133)
Settings: small-molecule microarray binding, FGF2, fluorescence 635/667; higher = more signal
Below, each entry is listed alongside its reported composite z-score.
MEASURED PARAMETER: composite z-score

{"COMPOUND": "CC(C)(C)C(=O)N[C@@H](c1ccc(Cl)cc1)[C@]1(C)C[C@H]1C1CCCCC1", "MEASURED PARAMETER": "composite z-score", "NUMBER": -0.386}
{"COMPOUND": "CC(C)(C)OC(=O)CC[C@@]12N=C(c3ccc(OCCCO)cc3)O[C@@H]1c1ccccc1N(CCS(=O)(=O)c1ccccc1)C2=O", "MEASURED PARAMETER": "composite z-score", "NUMBER": 0.109}
{"COMPOUND": "C=CCC(OC(C)=O)[C@@H]1[C@@H](N(Cc2ccc(-c3cccc(C(F)(F)F)c3)o2)C(=O)c2ccc(-c3ccccc3)cc2)c2cc(OCCCO)ccc2N1C(=O)c1ccc(-c2ccccc2)cc1 (some centres not stated)", "MEASURED PARAMETER": "composite z-score", "NUMBER": -0.0003}
{"COMPOUND": "CC(C)c1ccc(NN2C(C(O)C(c3ccccc3)c3ccccc3)C=CC3C(=O)N(c4ccccc4)C(=O)C32)cc1 (configuration not stated)", "MEASURED PARAMETER": "composite z-score", "NUMBER": 0.388}
{"COMPOUND": "CCN(CC)c1ccc(N2CC=CC34O[C@@H]5/C=C\\CCCOC(=O)C5[C@H]3C(=O)N(CCO)[C@@H]4C2=O)cc1 (some centres not stated)", "MEASURED PARAMETER": "composite z-score", "NUMBER": -1.03}
{"COMPOUND": "Cc1ccc(S[C@]2(C(=O)NC(C)C)CC(=O)N(Cc3ccccc3Cl)[C@@H]2c2ccc(CO)cc2I)cc1", "MEASURED PARAMETER": "composite z-score", "NUMBER": -0.934}
{"COMPOUND": "O=C1[C@H]2C=C(Br)[C@H](C[C@@H]2c2ccccc2)[C@@]12CO2", "MEASURED PARAMETER": "composite z-score", "NUMBER": 0.402}

----------
Below, each entry is listed alongside its reported composite z-score.
Tested on: Sam68 (KHDRBS1)
Assay: Sam68 small-molecule binders, primary screen, biochemical, small-molecule microarray, 635 nm fluorescence (AID 1125);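 further: score merges 667 nm channel intensity with signal to noise over triplicate slides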
Conditions: small-molecule microarray binding, higher = more signal
MEASURED PARAMETER: composite z-score

{"COMPOUND": "CN1C(=O)C2C=CC(C(O)c3cc(C(F)(F)F)cc(C(F)(F)F)c3)N(N3CCCCC3)C2C1=O (stereo not drawn)", "NUMBER": 1.08}
{"COMPOUND": "CC(C)C[C@H]1NC(=O)[C@@]23C(=O)N[C@@H](Cc4ccccc4)C2[C@H](C)[C@@]2(C)O[C@H]2C3/C=C/C/C=C\\CNC(=O)[C@H](Cc2ccccc2)NC1=O (stereo partly drawn)", "NUMBER": 0.791}
{"COMPOUND": "COCCOC(=O)N1C(=O)[C@@]2(c3cc(C#CCCO)ccc31)[C@H](C(=O)N1CCc3cc(OC)c(OC)cc3C1)[C@H]1C(=O)O[C@H](c3ccccc3)[C@H](c3ccccc3)N1[C@@H]2c1ccc(O)cc1", "NUMBER": 1.29}
